# target desc: T1, HLA-DR DRB1*1302 (human)
# T1 chain 1: not shown
# T1 chain 2: not shown
# protocol details: radiolabeled-peptide inhibition, purified HLA-DR
# condition summary: remark: other sources report otherwise
reported property: pIC50
Note on pIC50: it is the negative log10 of concentration, concentration in mol/L.

// solved cases for pIC50 follow
State the recorded pIC50 for this entry: GMSYLEDVRLVHRDL [9019.0002]
5.42

State the recorded pIC50 for this entry: AYVMAGVGSPYVSRL [9019.0077]
6.40

New cases:
State the recorded pIC50 for this entry: LQGLPREYVNARHCL [9019.0064]
6.17

State the recorded pIC50 for this entry: ILLVVVLGVVFGILI [9019.0068]
6.32

State the recorded pIC50 for this entry: ITGYLYISAWPDSLP [9019.0050]
6.12

State the recorded pIC50 for this entry: CMQIAKGMSYLEDVR [9019.0083]
5.65

State the recorded pIC50 for this entry: PESFDGDPASNTAPL [9019.0048]
5.41

State the recorded pIC50 for this entry: HRDLAARNVLVKSPN [9019.0085]
6.94

State the recorded pIC50 for this entry: ISAVVGILLVVVLGV [9019.0067]
6.35
